# Assay Explanation: Perfect off-state by site-specific incorporation of o-nitrobenzyl (o-NB) unit into RNase S' was determined before photolysis at 10 x E5 M/min
Non-standard residues stand in square brackets, D forms with d. Residues, ends and D or L forms follow the SMILES beside them. *: point of attachment. X2 = COC(=O)C(N*)c1ccccc1[N+](=O)[O-]; X3 = O=C(OCc1ccccc1[N+](=O)[O-])*; X1 = O=[N+]([O-])c1ccccc1CO*; Nle = CCCC[C@H](N)C(=O)O

Compound: CCCC[C@H](NC(=O)[C@H](Cc1c[nH]cn1)NC(=O)[C@H](CCC(N)=O)NC(=O)[C@H](CCCN=C(N)N)NC(=O)[C@H](CCC(=O)O)NC(=O)[C@H](Cc1ccccc1)NC(=O)[C@H](CCCCN)NC(=O)[C@H](C)NC(=O)[C@H](C)NC(=O)[C@H](C)NC(=O)[C@@H](NC(=O)[C@H](CCC(=O)O)NC(=O)[C@@H](N)CCCCNC(=O)OCc1ccccc1[N+](=O)[O-])[C@@H](C)O)C(=O)N[C@@H](CC(=O)O)C(=O)N[C@@H](CO)C(=O)O (H-K(X3)ETAAAKFERQH[Nle]DS-OH)
Photolysis: 1.01

Compound: CCCC[C@H](NC(=O)[C@H](Cc1c[nH]cn1)NC(=O)[C@H](CCC(=O)NC(C(=O)OC)c1ccccc1[N+](=O)[O-])NC(=O)[C@H](CCCN=C(N)N)NC(=O)[C@H](CCC(=O)O)NC(=O)[C@H](Cc1ccccc1)NC(=O)[C@H](CCCCN)NC(=O)[C@H](C)NC(=O)[C@H](C)NC(=O)[C@H](C)NC(=O)[C@@H](NC(=O)[C@H](CCC(=O)O)NC(=O)[C@@H](N)CCCCN)[C@@H](C)O)C(=O)N[C@@H](CC(=O)O)C(=O)N[C@@H](CO)C(=O)O (stereo partly specified) (H-KETAAAKFERE(X2)H[Nle]DS-OH)
Photolysis: 0

Compound: CCCC[C@H](NC(=O)[C@H](Cc1c[nH]cn1)NC(=O)[C@H](CCC(N)=O)NC(=O)[C@H](CCCN=C(N)N)NC(=O)[C@H](CCC(=O)O)NC(=O)[C@H](Cc1ccccc1)NC(=O)[C@H](CCCCN)NC(=O)[C@H](C)NC(=O)[C@H](C)NC(=O)[C@H](C)NC(=O)[C@@H](NC(=O)[C@H](CCC(=O)OCc1ccccc1[N+](=O)[O-])NC(=O)[C@@H](N)CCCCN)[C@@H](C)O)C(=O)N[C@@H](CC(=O)O)C(=O)N[C@@H](CO)C(=O)O (H-KE(X1)TAAAKFERQH[Nle]DS-OH)
Photolysis: 0.96

Compound: CCCC[C@H](NC(=O)[C@H](Cc1c[nH]cn1)NC(=O)[C@H](CCC(N)=O)NC(=O)[C@H](CCCN=C(N)N)NC(=O)[C@H](CCC(=O)OCc1ccccc1[N+](=O)[O-])NC(=O)[C@H](Cc1ccccc1)NC(=O)[C@H](CCCCN)NC(=O)[C@H](C)NC(=O)[C@H](C)NC(=O)[C@H](C)NC(=O)[C@@H](NC(=O)[C@H](CCC(=O)O)NC(=O)[C@@H](N)CCCCN)[C@@H](C)O)C(=O)N[C@@H](CC(=O)O)C(=O)N[C@@H](CO)C(=O)O (H-KETAAAKFE(X1)RQH[Nle]DS-OH)
Photolysis: 0.99

Compound: CCCC[C@H](NC(=O)[C@H](Cc1c[nH]cn1)NC(=O)[C@H](CCC(N)=O)NC(=O)[C@H](CCCN=C(N)N)NC(=O)[C@H](CCC(=O)O)NC(=O)[C@H](Cc1ccccc1)NC(=O)[C@H](CCCCNC(=O)OCc1ccccc1[N+](=O)[O-])NC(=O)[C@H](C)NC(=O)[C@H](C)NC(=O)[C@H](C)NC(=O)[C@@H](NC(=O)[C@H](CCC(=O)O)NC(=O)[C@@H](N)CCCCN)[C@@H](C)O)C(=O)N[C@@H](CC(=O)O)C(=O)N[C@@H](CO)C(=O)O (H-KETAAAK(X3)FERQH[Nle]DS-OH)
Photolysis: 1.1

Compound: CCCC[C@H](NC(=O)[C@H](Cc1c[nH]cn1)NC(=O)[C@H](CCC(N)=O)NC(=O)[C@H](CCCN=C(N)N)NC(=O)[C@H](CCC(=O)O)NC(=O)[C@H](Cc1ccccc1)NC(=O)[C@H](CCCCN)NC(=O)[C@H](C)NC(=O)[C@H](C)NC(=O)[C@H](C)NC(=O)[C@@H](NC(=O)[C@H](CCC(=O)O)NC(=O)[C@@H](N)CCCCN)[C@@H](C)O)C(=O)N[C@@H](CC(=O)O)C(=O)N[C@@H](CO)C(=O)O (H-KETAAAKFERQH[Nle]DS-OH)
Photolysis: 1.02
